protocolText: Metabolic stability in mouse liver microsomes assessed as half life
Format: ADME, Microsome
observedProperty: half-life
Please state the number and follow it with the unit.

(Q) Given `CCOc1cc(C(C)(C)C)ccc1C1=N[C@@](C)(c2ccc(Cl)cc2)[C@@](C)(c2ccc(Cl)cc2)N1C(=O)N1CCN(CC(=O)NCCOCCOCCOCC(=O)N[C@H](C(=O)N2C[C@H](O)C[C@H]2C(=O)NCc2ccc(-c3scnc3C)cc2)C(C)(C)C)CC1` , respond with its half-life.
(A) 25.9 min
